# SYSTEM TESTED: staphylococcal enterotoxin B (Staphylococcus aureus (strain not …, UniProt P01552))
# Sequence (P01552 28-266): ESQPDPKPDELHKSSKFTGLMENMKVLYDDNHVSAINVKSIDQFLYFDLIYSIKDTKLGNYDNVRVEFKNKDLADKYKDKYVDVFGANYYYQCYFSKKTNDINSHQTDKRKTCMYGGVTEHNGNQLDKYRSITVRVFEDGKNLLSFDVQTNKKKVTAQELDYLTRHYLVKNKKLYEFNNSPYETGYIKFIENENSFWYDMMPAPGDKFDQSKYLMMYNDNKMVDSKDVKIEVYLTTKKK
# ASSAY EXPLANATION: SPR
# CONDITION: both partners purified
Catalogue of kon values
Just the number in M⁻¹ s⁻¹, nothing appended.

• sdAb S222-A2 (VHH, source: E. coli, periplasm, purified (IMAC, size exclusion chromatography)) VHH: DVQLQASGGGLVEPGGSLRLSCAASGSAVSIGFMGWHRQAPGKQRERVAQISSTGIPNYADTVKGRFTISRDNTKNTMYLQMNSLNADDTAVYFCNARLYDGTSAWGQGTQVTVSS = 1.22e+06

Measured kon, sdAb H9-H11 (VHH, source: E. coli, periplasm, purified (IMAC, size exclusion chromatography)) VHH: DVQLQASGGGLVQPGGSLRLSCAASESAVRIGFMGWHRQAPGNQRERVAQISSTGLPTYADAVKGRFTISRDNTKNTVYLQMNSLNADDTAVYFCNARLYDGTSVWGQGTQVTVSS : 485000

Numbers sourced from paper PMC4118376.
